Target: nicotinic receptors
Test: Binding of compounds to relevant receptor sites (inhibition of L-[^3 H]nicotine binding, rat brain membranes)
Conditions: inhibition of L-[^3 H]nicotine (10 nM) binding
Protocol: Rats (Sprague-Dawley) were maintained on a 12 hour light/dark cycle and were allowed free access to water and food supplied by Wayne Lab Blox, Madison, Wis. Animals used in the present studies weighed 200 to 250 g. Brain membrane preparations were obtained from brain tissue of either males or females. […] The incubation buffer was Krebs-Ringers HEPES containing 200 mM TRIS buffer, pH 7.5. […] Nonspecific binding was determined by inclusion of 10 uM nonradioactive nicotine in the incubations. […]
Recorded Ki values for a group of compounds are listed next.
Measurement Label: Ki (nM)

compound="CNC(C)C/C=C/c1cccnc1 (stereo not drawn)" target_of_assay="nicotinic receptors" recorded_measurement=82
compound=CCOc1cncc(/C=C/CCNC)c1 target_of_assay="nicotinic receptors" recorded_measurement=9
compound=CNCC/C=C/c1cncc(OC)c1 target_of_assay="nicotinic receptors" recorded_measurement=7

###

target: CNS nicotinic receptors (thalamic synaptosomes); experiment: Determination of ion flux from thalamic synaptosomes (^86 Rb+ efflux; receptor activation)
Recorded EC50 values for a group of molecules are listed next.
Measurement Label: EC50

molecule="CCOc1cncc(/C=C/CCNC)c1 [Sample No. 1]" recorded_measurement="269 nM"
molecule="CNCC/C=C/c1cncc(OC)c1 [Sample No. 3]" recorded_measurement="470 nM"
molecule="CNCC/C=C/c1cccnc1 [Sample No. C-2, (E)-metanicotine, reference compound]" recorded_measurement="732 nM"
molecule="CNC(C)C/C=C/c1cccnc1 (stereo not shown) [Sample No. 2]" recorded_measurement="1700 nM"

###

system: CNS nicotinic receptors (thalamic synaptosomes); test: Determination of ion flux from thalamic synaptosomes (^86 Rb+ efflux; receptor activation); format: biochemical, rat; conditions: percent of Emax for tetramethylammonium
Measurement Label: Receptor Activation Emax (%)

compound="CN1CCC[C@H]1c1cccnc1 [Sample No. C-1, (S)--(-)--nicotine, reference compound]" target_of_assay="CNS nicotinic receptors (thalamic synaptosomes)" recorded_measurement=87
compound="CNCC/C=C/c1cncc(OC)c1 [Sample No. 3]" target_of_assay="CNS nicotinic receptors (thalamic synaptosomes)" recorded_measurement=62
compound="CNCC/C=C/c1cccnc1 [Sample No. C-2, (E)-metanicotine, reference compound]" target_of_assay="CNS nicotinic receptors (thalamic synaptosomes)" recorded_measurement=79
compound="CNC(C)C/C=C/c1cccnc1 (centres unmarked) [Sample No. 2]" target_of_assay="CNS nicotinic receptors (thalamic synaptosomes)" recorded_measurement=35
compound="CCOc1cncc(/C=C/CCNC)c1 [Sample No. 1]" target_of_assay="CNS nicotinic receptors (thalamic synaptosomes)" recorded_measurement=67

###

system: dopamine release from striatal synaptosomes; assay: Determination of dopamine release (striatal synaptosomes); type: biochemical, rat (Sprague-Dawley); conditions: rat striatal synaptosomes; percentage of release obtained with (S)-(-)-nicotine
Measurement Label: Dopamine Release Emax (%)

molecule=CCOc1cncc(/C=C/CCNC)c1 unit_string=% recorded_measurement=124
molecule="CN1CCC[C@H]1c1cccnc1 [Sample No. C-1, (S)--(-)--nicotine, reference compound]" unit_string=% recorded_measurement=100
molecule=CNCC/C=C/c1cncc(OC)c1 unit_string=% recorded_measurement=106
molecule="CNC(C)C/C=C/c1cccnc1 (centres unmarked)" unit_string=% recorded_measurement=182
molecule="CNCC/C=C/c1cccnc1 [Sample No. C-2, (E)-metanicotine, reference compound]" unit_string=% recorded_measurement=81
